Reference for the values: ChEMBL document CHEMBL2150901

Biological target: Adenosine receptor A3 (Homo sapiens)
Sequence (whole entry): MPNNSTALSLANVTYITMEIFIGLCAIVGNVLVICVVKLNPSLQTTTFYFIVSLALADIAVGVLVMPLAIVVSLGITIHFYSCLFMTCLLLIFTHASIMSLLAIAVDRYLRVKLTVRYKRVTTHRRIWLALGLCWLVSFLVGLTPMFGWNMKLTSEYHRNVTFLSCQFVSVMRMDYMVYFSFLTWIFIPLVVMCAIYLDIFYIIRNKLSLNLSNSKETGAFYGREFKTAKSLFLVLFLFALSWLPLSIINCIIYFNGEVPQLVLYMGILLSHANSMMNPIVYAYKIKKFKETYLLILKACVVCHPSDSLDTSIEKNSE
Assay: Displacement of [3H]PSB-11 from human recombinant adenosine A3 receptor expressed in CHO cells at 10 uM
Type: cell-based
Each entry below lists one item and its recorded inhibition value.
Answer format: numeric, % implied, no suffix.

Use the examples below as a reference point.
| molecule | inhibition (%) |
| --- | --- |
| Cn1c(=O)c2c(nc3n2CCCN3C2CCCCCCC2)n(C)c1=O | 52 |
| Cn1c(=O)c2c(nc3n2CCCN3CCC2=CCCCC2)n(C)c1=O | 23 |

[ask] Need inhibition of `Cn1c(=O)c2c(nc3n2CCCN3[C@H]2CC[C@H](O)CC2)n(C)c1=O` , thanks.
[reply] 27

[ask] Need inhibition of `CC(=O)O[C@H]1CC[C@H](N2CCCn3c2nc2c3c(=O)n(C)c(=O)n2C)CC1` , thanks.
[reply] 27

[ask] Need inhibition of `Cn1c(=O)c2c(nc3n2CCN3C2CCCCC2)n(C)c1=O` , thanks.
[reply] 12

[ask] Need inhibition of `Cn1c(=O)c2c(nc3n2CCCN3C2CCCCCC2)n(C)c1=O` , thanks.
[reply] 6

[ask] Need inhibition of `Cn1c(=O)c2c(nc3n2CCCN3CC2CC2)n(C)c1=O` , thanks.
[reply] 1

[ask] Need inhibition of `Cn1c(=O)c2c(nc3n2CCCN3C2CCC2)n(C)c1=O` , thanks.
[reply] 5

[ask] Need inhibition of `Cn1c(=O)c2c(nc3n2CCCN3C2CCCCC2)n(C)c1=O` , thanks.
[reply] 12

[ask] Need inhibition of CC(=O)OC1CCC(N2CCCCn3c2nc2c3c(=O)n(C)c(=O)n2C)CC1 (mixture of isomers) , thanks.
[reply] 28

====

System: Rattus norvegicus
Assay: Anticonvulsant activity in Sprague-Dawley albino rat assessed as protection against subcutaneous pentylenetetrazole-induced seizures at 50 mg/kg, po after 0.5 hrs
Assay type: functional, organism-based
Set-up: dose 50 mg/kg
Calls of active or inactive are those of the source. The rule behind the calls is not given here.

| query smiles | Activity |
| --- | --- |
| Cn1c(=O)c2c(nc3n2CCCCN3CC2CCCCC2)n(C)c1=O | Active |
| Cn1c(=O)c2c(nc3n2CCCN3CC2CC2)n(C)c1=O | inactive |
| Cn1c(=O)c2c(nc3n2CCCN3CC2CCCCC2)n(C)c1=O | Active |
| C[C@@H](C1CCCCC1)N1CCCn2c1nc1c2c(=O)n(C)c(=O)n1C | inactive |

====

Biological target: Adenosine receptor A2b (Homo sapiens) (UniProt P29275)
Sequence (P29275 whole entry): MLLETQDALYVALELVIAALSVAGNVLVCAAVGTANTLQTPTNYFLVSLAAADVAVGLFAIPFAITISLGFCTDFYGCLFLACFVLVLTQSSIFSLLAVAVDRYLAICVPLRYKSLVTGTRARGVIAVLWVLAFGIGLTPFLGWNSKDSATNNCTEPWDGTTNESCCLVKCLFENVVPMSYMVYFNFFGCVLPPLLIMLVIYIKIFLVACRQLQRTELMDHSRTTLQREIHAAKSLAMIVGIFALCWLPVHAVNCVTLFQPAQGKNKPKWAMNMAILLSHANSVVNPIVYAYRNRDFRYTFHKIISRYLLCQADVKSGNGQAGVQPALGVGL
Experiment: Displacement of [3H]PSB-603 from human recombinant adenosine A2B receptor expressed in CHO cells at 10 uM
Assay type: cell-based
recorded metric: inhibition (%)
Answer format: numeric, % implied, no suffix.

Use the examples below as a reference point.
| query smiles | test target | inhibition [%] |
| --- | --- | --- |
| Cn1c(=O)c2c(nc3n2CCCCN3C2CCCCCCC2)n(C)c1=O | Adenosine receptor A2b (Homo sapiens) (UniProt P29275) | 0 |
| Cn1c(=O)c2c(nc3n2CCCN3C2CCCCC2)n(C)c1=O | Adenosine receptor A2b (Homo sapiens) (UniProt P29275) | 0 |
| Cn1c(=O)c2c(nc3n2CCCN3C23CC4CC(CC(C4)C2)C3)n(C)c1=O | Adenosine receptor A2b (Homo sapiens) (UniProt P29275) | 0 |
| CC(=O)O[C@H]1CC[C@H](N2CCCn3c2nc2c3c(=O)n(C)c(=O)n2C)CC1 | Adenosine receptor A2b (Homo sapiens) (UniProt P29275) | 0 |
| Cn1c(=O)c2c(nc3n2CCCN3CCC2=CCCCC2)n(C)c1=O | Adenosine receptor A2b (Homo sapiens) (UniProt P29275) | 6 |

[ask] Need inhibition of `Cn1c(=O)c2c(nc3n2CCCN3[C@H]2CC[C@H](O)CC2)n(C)c1=O` , thanks.
[reply] 0

[ask] Need inhibition of `Cn1c(=O)c2c(nc3n2CCCN3C2CCCCCC2)n(C)c1=O` , thanks.
[reply] 0

[ask] Need inhibition of `Cn1c(=O)c2c(nc3n2CCCN3C2CCC2)n(C)c1=O` , thanks.
[reply] 21

[ask] Need inhibition of `Cn1c(=O)c2c(nc3n2CCN3C2CCCCC2)n(C)c1=O` , thanks.
[reply] 11
